Please respond with reported EC50 for every item in the list.
Target under test: T1, human FAP on CHO cells (human, UniProt Q12884 1-760)
T1 construct: whole, on cells; also called CHO cell line overexpressing human FAP; CHOK1/FAP
Assay text: FACS, CHO cells overexpressing human FAP
Write the number in ng/mL without appending the unit.

IN: Would you kindly share the measured EC50 for Ab15 (antibody, human IgG1, kappa, L234A L235A, V domains shown, Fully human, IgG1 / kappa; also called anti-FAP antibody Ab15) VH: QMQLVQSGAEVKKPGASVTVSCRASGYSFADHFIHWVRQAPGQGFQWMGWINPNRGVTHHAQDFQGRVAMTRDMSTDTVYMELTSLRSDDTAVYYCARDESLTARPYYFYGFDVWGQGTLVTVSS VL: EIVLTQSPSSVSASVGDRVTITCRASQGISSWLAWYQQKPGKAPKSLIYAASSLQSGVPSRFSGSGSGTDFTLTISSLQPEDFATYYCQQANSFPPTFGGGTKVEIKR ?
OUT: 0.486

IN: Would you kindly share the measured EC50 for Ab9 (antibody, human IgG1, kappa, L234A L235A, V domains shown, Fully human, IgG1 / kappa; also called anti-FAP antibody Ab9) VH: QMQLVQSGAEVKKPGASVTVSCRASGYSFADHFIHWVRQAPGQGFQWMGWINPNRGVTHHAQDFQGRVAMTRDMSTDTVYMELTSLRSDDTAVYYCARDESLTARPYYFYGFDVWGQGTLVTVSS VL: DIQMTQSPSSVSASVGDRVTITCRASQGISSWLAWYQQKPGKAPKLLIYAASSLQSGVPSRFSGSGSGTDFTLTISSLQPEDFATYYCQQANSFPPAFGQGTKVEIKR ?
OUT: 0.368

IN: Would you kindly share the measured EC50 for 28H1 (antibody, V domains shown, also called control anti-FAP antibody 28H1) VH: EVQLLESGGGLVQPGGSLRLSCAASGFTFSSHAMSWVRQAPGKGLEWVSAIWASGEQYYADSVKGRFTISRDNSKNTLYLQMNSLRAEDTAVYYCAKGWLGNFDYWGQGTLVTVSS VL: EIVLTQSPGTLSLSPGERATLSCRASQSVSRSYLAWYQQKPGQAPRLLIIGASTRATGIPDRFSGSGSGTDFTLTISRLEPEDFAVYYCQQGQVIPPTFGQGTKVEIK ?
OUT: 0.784

IN: Would you kindly share the measured EC50 for Ab14 (antibody, human IgG1, kappa, L234A L235A, V domains shown, Fully human, IgG1 / kappa; also called anti-FAP antibody Ab14; Ab114) VH: QVQLQQSGVEVKKPGASVTVSCRASGYSFADHFIHWVRQAPGQGFQWMGWINPNRGVTHHAQDFQGRVAMTRDMSTDTVYMELTSLRSDDTAVYYCARDASLTARPYYFYGFDVWGQGTLVTVSS VL: EIVLTQSPSSVSASVGDRVTITCRASQGISSWLAWYQQKPGKAPKLLIYAASSLQSGVPSRFSGSGSGTDFTLTISSLQPEDFATYYCQQANSFPLTFGGGTKVEIKR ?
OUT: 0.474

IN: Would you kindly share the measured EC50 for Ab10 (antibody, human IgG1, kappa, L234A L235A, V domains shown, Fully human, IgG1 / kappa; also called anti-FAP antibody Ab10; Ab110) VH: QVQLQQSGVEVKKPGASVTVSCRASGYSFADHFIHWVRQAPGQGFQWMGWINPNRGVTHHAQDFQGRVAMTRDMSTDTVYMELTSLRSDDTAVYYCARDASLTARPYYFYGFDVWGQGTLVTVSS VL: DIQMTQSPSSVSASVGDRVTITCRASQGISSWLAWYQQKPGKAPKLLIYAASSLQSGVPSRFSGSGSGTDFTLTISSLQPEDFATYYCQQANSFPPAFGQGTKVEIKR ?
OUT: 0.432
